- Tested target: Alpha-2A adrenergic receptor (Homo sapiens); also: assay procedure not described here
- Sequence (P08913 whole entry): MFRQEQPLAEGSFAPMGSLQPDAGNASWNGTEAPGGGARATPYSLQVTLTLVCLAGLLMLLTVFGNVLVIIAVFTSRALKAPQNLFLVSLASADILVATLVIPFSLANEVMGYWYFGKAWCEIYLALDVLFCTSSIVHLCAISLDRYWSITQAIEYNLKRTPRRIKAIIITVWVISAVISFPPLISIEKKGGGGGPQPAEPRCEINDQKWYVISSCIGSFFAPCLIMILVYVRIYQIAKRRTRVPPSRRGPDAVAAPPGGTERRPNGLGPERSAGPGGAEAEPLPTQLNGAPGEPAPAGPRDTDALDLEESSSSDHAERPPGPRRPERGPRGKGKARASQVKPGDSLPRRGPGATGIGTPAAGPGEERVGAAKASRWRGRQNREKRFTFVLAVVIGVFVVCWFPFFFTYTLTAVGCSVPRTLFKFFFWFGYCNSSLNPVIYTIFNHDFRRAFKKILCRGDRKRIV
Each record here notes measured AC50.

Ask | # input molecule: NCC1(CC(=O)O)CCCCC1 ; wanted: its AC50
Reply | > 30 µM

Ask | Param item: CCOc1ccccc1OCCN[C@H](C)Cc1ccc(OC)c(S(N)(=O)=O)c1
Reply | 0.79 µM

Ask | Param item: CC(=O)Oc1ccccc1C(=O)O
Reply | > 30 µM

Ask | Param item: CN1CC2c3ccccc3Oc3ccc(Cl)cc3C2C1 (centres undefined)
Reply | 0.0137 µM

###

- Tested target: 5-hydroxytryptamine receptor 2B (Homo sapiens); also: assay procedure not described here
- Sequence (P41595 whole entry): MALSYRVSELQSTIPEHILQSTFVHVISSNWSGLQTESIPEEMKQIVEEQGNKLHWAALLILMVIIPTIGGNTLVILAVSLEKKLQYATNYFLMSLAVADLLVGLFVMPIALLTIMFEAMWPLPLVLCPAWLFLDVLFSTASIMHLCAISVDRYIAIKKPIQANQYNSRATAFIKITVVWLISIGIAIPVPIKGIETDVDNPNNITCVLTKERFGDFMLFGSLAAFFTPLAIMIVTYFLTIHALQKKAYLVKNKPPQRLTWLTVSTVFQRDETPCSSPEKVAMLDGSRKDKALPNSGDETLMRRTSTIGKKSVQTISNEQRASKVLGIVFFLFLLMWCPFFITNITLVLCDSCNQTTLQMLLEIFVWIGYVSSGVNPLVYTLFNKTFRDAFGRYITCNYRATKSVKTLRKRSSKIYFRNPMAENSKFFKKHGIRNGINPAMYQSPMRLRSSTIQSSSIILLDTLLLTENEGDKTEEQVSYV
- Format: functional, cell-based
Assay endpoint: AC50

>>> obs_value("C[C@H](CS)C(=O)N1CCC[C@H]1C(=O)O [CAPTOPRIL]")
"> 10 µM"
>>> obs_value("CN(C)CCC(O)(c1ccccc1)c1ccccc1Cl (stereo not drawn) [CHLOPHEDIANOL]")
"> 10 µM"
>>> obs_value("Cc1ccc(-c2ncc(Cl)cc2-c2ccc(S(C)(=O)=O)cc2)cn1 [ETORICOXIB]")
"> 10 µM"
>>> obs_value("CC1CC(OC(=O)C(O)c2ccccc2)CC(C)(C)C1 (stereo not drawn) [CYCLANDELATE]")
"> 10 µM"
>>> obs_value("CC1=C(C(=O)O)N2C(=O)[C@@H](NC(=O)[C@H](N)C3=CCC=CC3)[C@H]2SC1 [CEPHRADINE]")
"> 30 µM"

Continue with the next compound.
Ask | # input compound: Cn1cnc2c(F)c(Nc3ccc(Br)cc3F)c(C(=O)NOCCO)cc21 [BINIMETINIB] ; wanted: its AC50
Reply | > 30 µM

###

Each record here notes measured AC50.
- Tested target: Gamma-aminobutyric acid receptor subunit alpha-1 (Rattus norvegicus, UniProt P62813); also: assay procedure not described here
- Sequence (P62813 whole entry): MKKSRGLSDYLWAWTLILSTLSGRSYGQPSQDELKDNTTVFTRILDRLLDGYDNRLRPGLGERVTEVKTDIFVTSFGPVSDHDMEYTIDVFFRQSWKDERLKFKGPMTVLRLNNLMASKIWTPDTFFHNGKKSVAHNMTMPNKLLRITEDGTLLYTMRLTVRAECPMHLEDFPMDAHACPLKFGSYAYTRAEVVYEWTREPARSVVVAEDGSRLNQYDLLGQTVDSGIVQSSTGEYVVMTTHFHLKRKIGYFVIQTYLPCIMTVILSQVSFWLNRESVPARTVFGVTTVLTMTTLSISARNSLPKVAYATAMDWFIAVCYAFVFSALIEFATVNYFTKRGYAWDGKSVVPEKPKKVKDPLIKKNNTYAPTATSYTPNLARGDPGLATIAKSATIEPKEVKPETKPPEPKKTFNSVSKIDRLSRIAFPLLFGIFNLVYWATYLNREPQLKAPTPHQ
- Assay type: functional

Previously resolved entries follow.
>>> obs_value("CCC[C@@]1(CCc2ccccc2)CC(O)=C([C@H](CC)c2cccc(NS(=O)(=O)c3ccc(C(F)(F)F)cn3)c2)C(=O)O1")
"> 30 µM"
>>> obs_value("Nc1ccc(S(=O)(=O)Nc2ncccn2)cc1 [SULFADIAZINE]")
"> 10 µM"
>>> obs_value("CC(=O)N1CCN(c2ccc(OCC3COC(Cn4ccnc4)(c4ccc(Cl)cc4Cl)O3)cc2)CC1 (stereo not drawn) [KETOCONAZOLE]")
"> 10 µM"
>>> obs_value("CC1NCCOC1c1ccccc1 (stereo not drawn) [PHENMETRAZINE]")
"> 10 µM"

Ask | # input molecule: CCOc1ccccc1OCCN[C@H](C)Cc1ccc(OC)c(S(N)(=O)=O)c1 [TAMSULOSIN] ; wanted: its AC50
Reply | > 10 µM

Ask | Param item: C[C@H](Nc1ncnc2[nH]cnc12)c1cc2cccc(Cl)c2c(=O)n1-c1ccccc1 [DUVELISIB]
Reply | > 30 µM

Ask | Param item: COc1cccc2c1C(=O)c1c(O)c3c(c(O)c1C2=O)C[C@@](O)(C(=O)CO)C[C@@H]3O[C@H]1C[C@H](N)[C@H](O)[C@H](C)O1 [DOXORUBICIN]
Reply | > 10 µM

Ask | Param item: O=C(O)c1nn(Cc2ccc(Cl)cc2Cl)c2ccccc12 [LONIDAMINE]
Reply | > 30 µM
